Provenance of the data: patent US20140112930A1

target: T1, Dimeric Mouse Ang-2FD conjugated to human IgG1 (mouse (Mus musculus); human)
T1 construct: also called Mouse Ang-2FD-hFc
T1 sequence (chain, as listed by the source limits assumed): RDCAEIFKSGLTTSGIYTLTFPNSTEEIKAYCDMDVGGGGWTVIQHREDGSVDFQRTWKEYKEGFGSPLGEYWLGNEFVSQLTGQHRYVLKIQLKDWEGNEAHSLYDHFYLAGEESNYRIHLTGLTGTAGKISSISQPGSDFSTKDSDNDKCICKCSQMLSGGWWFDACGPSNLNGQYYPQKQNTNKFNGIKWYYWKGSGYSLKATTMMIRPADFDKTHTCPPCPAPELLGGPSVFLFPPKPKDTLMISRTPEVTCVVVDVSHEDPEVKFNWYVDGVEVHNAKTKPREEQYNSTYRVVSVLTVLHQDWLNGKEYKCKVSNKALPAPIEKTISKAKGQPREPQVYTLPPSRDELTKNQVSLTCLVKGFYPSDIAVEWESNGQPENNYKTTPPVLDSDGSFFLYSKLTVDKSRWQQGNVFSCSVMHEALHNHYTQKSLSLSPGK
assay overview: SPR, captured Ab, RT
Reported T1/2 values for the following binders.
quantity name: T1/2 (min)

binder: H1M732N (antibody, V domains shown) VH: EVQLVESGGGLVRPGGSLRLSCAASGFTFTNAWMSWVRQAPGKGLEWIGQIKSKTDGGTIDYAAPVKGRFTVSRDDSENTLFLQMNSLKTEDTAVYYCAGNWNYVDFDYWGQGTLVTVSS VL: DIQMTQSPSSLSASVGDRVTITCRASQDIRNDLGWYQQKPGKAPKRLIYAASSLQGGVPSRFSGSGSGTEFTLTISSLQPEDFATYYCLQHNSYPFTFGPGTKVDIK
quantity name: T1/2
unit text: min
measurement: 21.4
--
binder: H1H693P (antibody, V domains shown) VH: EVQLVESGGGLVQPGESLRLSCAASGFTFSSYAMSWVRQGPGKGLEWVSSISGSGGTTYYADSVEGRFTISRDNSKNTLYLHMNSLRAEDTAVYYCAKDFLDYSTYLAFDLWGQGTMVTVSS VL: DIQMTQSPSSVSASVGDRVTITCRASQGISSWLAWYQQKPGKAPKLLIYAASSLQSGVPSRFSGSGSGTDFTLTISSLQPEDFATYYCQQANSFPRTFGQGTKVEIK
quantity name: T1/2
unit text: min
measurement: 63.7
--
binder: H1H690P (antibody, V domains shown) VH: EVQLVESGGGLVQPGESLRLSCAASGFTFSSYAMSWVRQGPGKGLEWVSSITGSGDTTYYADSVKGRFTISRDNSKNTLYLHMNSLRAEDTAVYYCAKDFLDYSTYLAFDLWGQGTMVTVSS VL: EIVLTQSPATLSLSPGERATLSCRASQSVSSYLTWYQQKPGQAPRLLSYDASNRATGIPARFSGSGSGTDFTLTISSLEPEDFAVYYCQQRSNWPLTFGGGTKVEIK
quantity name: T1/2
unit text: min
measurement: 105
--
binder: H1H696P (antibody, V domains shown) VH: QVQLVESGGGLVKPGGSLRLSCAASGFTFSDYYMSWIRQAPGKGLEWVSYISYTGRTIYYADSVKGRFTISRDNAKNSLYLQMNSLRAEDTAVYYCARDTDYGDFFDYWGQGTLVTVSS VL: DIQMTQSPSSLSASVGDRVTITCRASQGISNYLAWFQQKPGKAPKSLIYAASSLQSGVPSKFSGSGSGTDFTLTISSLQPEDFATYYCQQYNSYPLTFGGGTKVEIK
quantity name: T1/2
unit text: min
measurement: 37.6
--
binder: H1H728N (antibody, V domains shown) VH: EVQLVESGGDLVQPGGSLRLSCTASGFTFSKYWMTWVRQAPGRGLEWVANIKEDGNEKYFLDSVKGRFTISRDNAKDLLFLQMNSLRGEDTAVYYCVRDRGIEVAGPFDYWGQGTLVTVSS VL: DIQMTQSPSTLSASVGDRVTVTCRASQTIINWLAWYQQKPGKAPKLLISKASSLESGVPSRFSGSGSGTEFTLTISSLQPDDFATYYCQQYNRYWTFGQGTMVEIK
quantity name: T1/2
unit text: min
measurement: 20
--
binder: H1H695P (antibody, V domains shown) VH: QVQLVESGGGVVQPGRSLRLSCAASGFTFSSYGMHWVRQAPGKGLEWVAVMWYDETNKYYADSVKGRFTISRDNSKNTLYLQMNSLRAEDTAVYYCARYSGYEDYYHGMDVWGQGTTVTVS VL: EIVMTQSPATPSVSPGERATLSCRASQSISSNLAWYQQKPGQAPRLLIYGASTRATGIPARFSGSGSGTEFTLTISSLQSEDFAVYYCQHYNNWITFGQGTRLEIK
quantity name: T1/2
unit text: min
measurement: 124
--
binder: H2M744N (antibody, V domains shown) VH: QVQLVQSGVEVKKPGASVKVSCKTSGYTFSNNGFSWVRQAPGQGLEWLGWISGYNGNTNYAQKFQGRVTMTTDTSTSTAYMELRTLRSDDTAVYYCARDQDYSNFHWLDPWGQGTLVTVAS VL: DIQMTQSPSSVSASVGDRVIITCRASQGLSSWLAWYQQKPGTAPKLLIHSASSLQTGVPSRFSGSGSGTEFALTINSLQPEDFGTYYCQQANSFPLTFGGGTRVEIK
quantity name: T1/2
unit text: min
measurement: 223
--
binder: H2M742N (antibody, V domains shown) VH: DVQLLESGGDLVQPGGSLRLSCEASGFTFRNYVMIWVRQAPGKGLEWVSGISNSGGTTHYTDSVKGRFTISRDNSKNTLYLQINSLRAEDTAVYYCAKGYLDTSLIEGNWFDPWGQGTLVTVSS VL: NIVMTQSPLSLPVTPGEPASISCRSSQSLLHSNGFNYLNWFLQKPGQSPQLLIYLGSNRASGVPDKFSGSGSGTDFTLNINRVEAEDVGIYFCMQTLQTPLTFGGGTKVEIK
quantity name: T1/2
unit text: min
measurement: 30.8
--
binder: H1H742N (antibody, V domains shown) VH: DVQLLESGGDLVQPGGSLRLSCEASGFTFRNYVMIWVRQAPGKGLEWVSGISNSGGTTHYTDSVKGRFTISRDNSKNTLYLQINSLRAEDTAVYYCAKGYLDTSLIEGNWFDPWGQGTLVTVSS VL: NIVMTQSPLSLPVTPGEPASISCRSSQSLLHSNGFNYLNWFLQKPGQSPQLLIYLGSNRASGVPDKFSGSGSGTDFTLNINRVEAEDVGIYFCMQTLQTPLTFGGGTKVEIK
quantity name: T1/2
unit text: min
measurement: 58
--
binder: H1H724N (antibody, V domains shown) VH: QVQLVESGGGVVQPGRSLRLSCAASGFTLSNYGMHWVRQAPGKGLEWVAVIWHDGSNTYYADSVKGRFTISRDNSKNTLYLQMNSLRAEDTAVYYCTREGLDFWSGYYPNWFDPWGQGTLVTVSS VL: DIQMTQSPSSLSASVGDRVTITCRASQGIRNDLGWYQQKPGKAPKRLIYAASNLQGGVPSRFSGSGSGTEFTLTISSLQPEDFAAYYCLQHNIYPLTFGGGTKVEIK
quantity name: T1/2
unit text: min
measurement: 84
--
binder: H1H750N (antibody, V domains shown) VH: QVKLVESGGGVVQPGRSLRVSCAASGFTFSSYGMHWVRQAPGKGLEWLAIIWYDGDNKYYSDSVKGRFTISRDNSKNTLYLQMNSLRAEDTAEYYCVRDASIASRFLDYWGQGTLVTVSS VL: DIQMTQSPSSLSASIGDRVTITCRATQDINNYLAWFQQKPGKAPKSLIYATSNLQSGVPSKFSGSGSGTDYTLTISSLQPEDFSTYYCQQYHSYPLTFGGGTKVEIK
quantity name: T1/2
unit text: min
measurement: 121
